Target: T1, human mutCALR on BaF3 cells stably expressing human MPL and human mutCALR (MPL-mutCALR cells) (human)
T1 construct: also called mutant calreticulin
T1 chain: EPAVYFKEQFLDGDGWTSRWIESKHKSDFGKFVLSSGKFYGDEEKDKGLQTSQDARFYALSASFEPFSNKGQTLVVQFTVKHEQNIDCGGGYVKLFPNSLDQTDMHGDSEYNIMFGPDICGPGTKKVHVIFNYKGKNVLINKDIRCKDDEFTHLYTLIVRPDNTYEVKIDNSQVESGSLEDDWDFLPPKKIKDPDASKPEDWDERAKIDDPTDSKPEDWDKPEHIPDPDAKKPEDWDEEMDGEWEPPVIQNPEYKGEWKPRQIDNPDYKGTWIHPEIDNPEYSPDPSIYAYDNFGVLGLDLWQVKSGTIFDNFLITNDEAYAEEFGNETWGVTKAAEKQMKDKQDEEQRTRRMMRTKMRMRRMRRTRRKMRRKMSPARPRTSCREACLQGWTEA
Assay: flow cytometry, BaF3 MPL-mutCALR cells
Assign classes using reported MPL-mutCALR AUC values and the ranges bin 0: < 60000; bin 1: ≥ 60000 and < 70000; bin 2: ≥ 70000, please.

{"BINDER": "anti-mutCALR antibody clone 186 (antibody, human IgG1, lambda, N297A, V domains shown) VH: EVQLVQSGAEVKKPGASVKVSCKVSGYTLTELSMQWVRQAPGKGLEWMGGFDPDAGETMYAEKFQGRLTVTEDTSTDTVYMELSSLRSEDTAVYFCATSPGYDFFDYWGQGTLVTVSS VL: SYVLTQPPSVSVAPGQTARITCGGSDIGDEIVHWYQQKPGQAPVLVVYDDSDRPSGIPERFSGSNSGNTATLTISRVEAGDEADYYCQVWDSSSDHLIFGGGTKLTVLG", "LABEL": "bin 0"}
{"BINDER": "anti-mutCALR antibody clone 18 (antibody, human IgG1, lambda, V domains shown, human IgG1) VH: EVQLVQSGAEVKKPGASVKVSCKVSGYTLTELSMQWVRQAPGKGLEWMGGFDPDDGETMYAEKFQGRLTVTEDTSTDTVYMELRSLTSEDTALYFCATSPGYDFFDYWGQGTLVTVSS VL: SYVLTQPPSVSVAPGKTARITCGGNNIGSKSVHWYQQKPGQAPVLVVYDDSDRPLGIPERFSGSNSGNTATLTINRVEAGDEADYYCQVWDSSNDLLIFGGGTKLTVLG", "LABEL": "bin 2"}
{"BINDER": "anti-mutCALR antibody clone 77 (antibody, human IgG1, lambda, N297A, V domains shown) VH: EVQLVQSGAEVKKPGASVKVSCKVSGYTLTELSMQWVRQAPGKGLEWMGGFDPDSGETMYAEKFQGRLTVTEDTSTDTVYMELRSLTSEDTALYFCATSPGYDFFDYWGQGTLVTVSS VL: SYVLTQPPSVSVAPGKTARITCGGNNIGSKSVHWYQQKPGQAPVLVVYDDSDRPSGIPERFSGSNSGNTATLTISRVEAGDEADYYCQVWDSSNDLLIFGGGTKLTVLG", "LABEL": "bin 0"}
{"BINDER": "anti-mutCALR antibody clone 78 (antibody, human IgG1, lambda, N297A, V domains shown) VH: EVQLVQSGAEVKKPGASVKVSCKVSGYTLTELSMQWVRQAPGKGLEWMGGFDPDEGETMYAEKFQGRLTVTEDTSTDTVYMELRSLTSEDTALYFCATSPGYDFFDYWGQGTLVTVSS VL: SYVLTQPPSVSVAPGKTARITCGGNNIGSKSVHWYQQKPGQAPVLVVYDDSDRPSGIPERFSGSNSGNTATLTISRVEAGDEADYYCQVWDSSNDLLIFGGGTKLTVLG", "LABEL": "bin 1"}
{"BINDER": "anti-mutCALR antibody clone 64 (antibody, human IgG1, lambda, N297A, V domains shown) VH: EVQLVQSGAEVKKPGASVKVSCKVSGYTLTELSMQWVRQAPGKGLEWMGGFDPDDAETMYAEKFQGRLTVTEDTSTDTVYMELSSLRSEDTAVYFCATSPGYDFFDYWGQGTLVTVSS VL: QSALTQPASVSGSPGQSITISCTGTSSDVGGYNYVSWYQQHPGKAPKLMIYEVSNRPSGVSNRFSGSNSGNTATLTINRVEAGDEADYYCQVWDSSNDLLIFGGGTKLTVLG", "LABEL": "bin 2"}
{"BINDER": "anti-mutCALR antibody clone 59 (antibody, human IgG1, lambda, N297A, V domains shown) VH: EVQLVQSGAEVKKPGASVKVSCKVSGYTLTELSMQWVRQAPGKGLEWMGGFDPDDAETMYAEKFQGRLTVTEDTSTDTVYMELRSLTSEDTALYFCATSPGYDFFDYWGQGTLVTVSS VL: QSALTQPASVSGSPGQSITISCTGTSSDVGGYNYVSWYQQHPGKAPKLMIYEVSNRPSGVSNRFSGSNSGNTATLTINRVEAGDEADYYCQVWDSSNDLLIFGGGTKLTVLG", "LABEL": "bin 2"}
{"BINDER": "anti-mutCALR antibody clone 5 (antibody, human IgG1, lambda, V domains shown, human IgG1) VH: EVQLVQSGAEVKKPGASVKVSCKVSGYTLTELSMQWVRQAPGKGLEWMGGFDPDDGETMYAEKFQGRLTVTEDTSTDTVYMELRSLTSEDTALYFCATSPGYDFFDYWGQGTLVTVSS VL: SYVLTQPPSVSVAPGQTASITCVGTNFGSKNVHWYQQRPGQAPVLVVYDDSDRPSGIPERFSGSNSGNTATLTISRVEAGDEADYYCQVWDSSSDHLIFGGGTKLTVLG", "LABEL": "bin 0"}
{"BINDER": "anti-mutCALR antibody clone 37 (antibody, human IgG1, lambda, V domains shown, human IgG1) VH: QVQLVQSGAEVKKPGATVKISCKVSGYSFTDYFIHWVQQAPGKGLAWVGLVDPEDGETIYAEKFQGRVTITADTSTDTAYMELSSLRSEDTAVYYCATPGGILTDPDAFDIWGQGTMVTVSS VL: QSALTQPASVSGSPGQSITISCTGTSSDVGGYNYVSWYQQHPGKAPKLMIYDVSNRPSGVSNRFSGSKSGNTASLTISGLQAEDEADYYCSSYTSSSTFYVFGTGTKVTVLG", "LABEL": "bin 2"}
{"BINDER": "anti-mutCALR antibody clone 173 (antibody, human IgG1, lambda, N297A, V domains shown) VH: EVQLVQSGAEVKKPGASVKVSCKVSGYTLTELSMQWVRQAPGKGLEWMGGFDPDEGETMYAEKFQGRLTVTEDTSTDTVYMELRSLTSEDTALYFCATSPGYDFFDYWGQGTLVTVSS VL: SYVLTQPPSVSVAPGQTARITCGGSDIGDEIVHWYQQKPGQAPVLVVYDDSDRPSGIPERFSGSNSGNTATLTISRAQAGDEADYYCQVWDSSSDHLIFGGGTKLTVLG", "LABEL": "bin 1"}
